Form: system (human p38alfa (SAPKa) enzyme (Homo sapiens, UniProt Q16539)), quantity (pIC50), values below.
pIC50 field: float, defined as -log10 of concentration (mol/L).

The cases that follow already have their pIC50 on record.
*Q* Please provide the recorded pIC50 for Cc1ccc2c(NC3CC3)noc2c1-c1ccc2c(c1)NC(=O)C2(C)C [Example 6] , tested on human p38alfa (SAPKa) enzyme (Homo sapiens, UniProt Q16539).
Sequence (Q16539 whole entry): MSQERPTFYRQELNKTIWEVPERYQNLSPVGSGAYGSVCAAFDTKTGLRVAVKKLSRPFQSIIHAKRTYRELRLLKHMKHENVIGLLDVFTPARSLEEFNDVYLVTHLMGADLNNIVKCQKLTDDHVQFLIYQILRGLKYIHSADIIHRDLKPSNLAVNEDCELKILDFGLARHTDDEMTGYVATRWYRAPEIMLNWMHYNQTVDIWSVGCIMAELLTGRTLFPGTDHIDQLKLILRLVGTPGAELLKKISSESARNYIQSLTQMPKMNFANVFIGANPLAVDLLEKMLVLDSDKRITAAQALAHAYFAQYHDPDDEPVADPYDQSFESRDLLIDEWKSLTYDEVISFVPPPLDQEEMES
*A* 9.40

*Q* Can you handle Cc1ccc2c(NC3CC3)noc2c1-c1ccc2c(c1)NC(=O)C21CCC(F)(F)CC1 [Example 5] next?
*A* 10.22

*Q* Can you handle Cc1ccc2c(N)noc2c1-c1ccc2c(c1)NC(=O)C21CCC(OCCN2CCOCC2)CC1 (stereo not shown) [Example 13] next?
*A* 8.48

Could you now consider this next compound?
*Q* Please provide the recorded pIC50 for Cc1ccn2c(NCC3CC3)nnc2c1-c1ccc2c(c1)NC(=O)C21CCCC1 [Example 20] , tested on human p38alfa (SAPKa) enzyme (Homo sapiens, UniProt Q16539).
*A* 7.70
